Test system: A549/ATCC NSCLC
assay_details: NCI-60 one-dose screen, 48 h (100 = growth as untreated, 0 = no growth, -100 = all killed)
experimental_parameters: 10 µM unless noted
The panel holds about 83,000 compounds, 20% with a hit somewhere; the sample as a whole holds those more often.
Note to self: values exactly at 90% are Criterion met. So growth at or above 90% is Criterion met, below is Criterion not met.

Past entries and their recorded results:
>>> df
                              record_smiles  qualitative_label
0  COc1ccc(/C=C\c2nc3ccccc3s2)cc1OP(=O)(O)O  Criterion not met
1  Cc1nccc2c3ccc(OCc4cn(-c5ccc(Cl)cc5)nn4)cc3n(CCCc3ccccc3)c12  Criterion not met

We now examine a further compound.
Challenge: Please tell me: is the compound "O=C(CN1CCOCC1)Nc1ccc2ncnc(Nc3ccc(Oc4cccc(F)c4)c(Cl)c3)c2c1" at or over 90% in terms of growth?
Response given: Criterion not met

* * *

Tested on: MCF7 breast
assay_details: NCI-60 one-dose screen, 48 h (100 = growth as untreated, 0 = no growth, -100 = all killed)
experimental_parameters: 10 µM unless noted
This is part of a sample that, as a whole, favours compounds with a hit. Of some 83,000 tested, about 20% had one in any assay.
Would you kindly list growth for each of these compounds?
Give bare numbers, in %.

Sample records with growth:
                                   compound  value_measured
0  COc1cc(C(=O)c2cnc(-c3ccc4cc[nH]c4c3)[nH]2)cc(OC)c1OC            11.3
1  C[C@H]1[C@H](C)CC[C@]2(CO)CC[C@]3(C)C(=CC[C@@H]4[C@@]5(C)Cc6c([nH]c7ccccc67)C(C)(C)[C@@H]5CC[C@]43C)[C@H]12            74.1
2  CCOc1ccc(/C=N/Nc2cc(C)nc3ccc(Cl)cc23)cc1            1.28

Give growth for each of the items listed below.
1. CN1CCN(c2c(F)cc(NC3=C(Cl)C(=O)c4ncccc4C3=O)cc2F)CC1
2. COc1cc2c(cc1[N+](=O)[O-])-c1ccc([N+](=O)[O-])cc1/C2=N\O
3. Cc1c2c(cc[n+]1Cc1ccc(F)cc1)c1ccc(OCc3cccc(F)c3)cc1n2Cc1cccc(F)c1
4. COc1ccccc1-c1c(-c2ccc(Cl)cc2)c2cc3c(cc2[nH]c1=O)OCCO3
5. CCCCCCCCCCCC(=O)C(CCCCCCCCCC)C(=O)Nc1ccccc1 (centres undefined)

Response given:
1: -58.3; 2: 58; 3: -76.7; 4: 42; 5: 108

Give growth for each of the items listed below.
1. COc1ccc(/C=C/c2n[nH]c3ccc(N4CCOC4=O)cc23)cc1
2. CC(C)Cc1ccc(C(C)C(=O)NCc2ccc(Cn3c(=O)sn(-c4ccc(Cl)cc4)c3=O)cc2)cc1 (centres undefined)
3. Cc1ccc2[nH]c(=O)cc(-n3nncc3COc3ccc(C=O)cc3)c2c1
4. CCCCCCCCOc1ccc(/C=N/Nc2cc(C)nc3ccc(Cl)cc23)cc1
5. N#Cc1cc(-c2nc3ccccc3s2)c(=O)n(NS(=O)(=O)c2ccc(Cl)cc2)c1N
6. O=S(=O)(c1ccccc1)N1CCCc2ccccc21

Response given:
1: 2.37; 2: 66.9; 3: 95.6; 4: -69.7; 5: 99.9; 6: 96.8

Give growth for each of the items listed below.
1. CCCCCCCCCCCCCCCC(=O)OC[C@@]1(O)C[C@@]23CC[C@@H]4C(C)(C)[C@H](O)CC[C@@]4(C)[C@@H]2CC[C@H]1C3
2. O=C1c2ccccc2-c2c1c1c(NCCCO)nc3ccccc3c1n2Cc1ccccc1
3. Clc1ccc(C2CC(c3cccc(Nc4ccncc4)c3)=NN2c2cc(Cl)cc(Cl)c2)cc1 (centres undefined)
4. Cc1ccc(/C=C/C(=O)c2ccc(N)cc2)c(C)c1
5. Clc1cc(Cl)cc(N2N=C(c3cccc(Nc4ccncc4)c3)CC2c2ccccc2)c1 (centres undefined)

Response given:
97
-23.2
-8.62
35
-11
